B1: LPCAT4 (parent)
chain: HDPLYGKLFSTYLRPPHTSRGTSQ

variants of: B1; assay: protein stability index of a GFP-peptide fusion (GPS, HEK-293T) (PSI 1-6); higher = more stable; settings: c terminus: a fixed tail appended;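 note: lentivirally expressed fusions sorted by FACS into six bins by GFP to DsRed ratio, PSI derived from sequencing read proportions per bin multiplied by bin number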
Form field: protein stability index (one value per entry).
EXPERIMENTAL READOUT: protein stability index

• L13S = 4.04
• R14H = 3.28
• Y12S = 3.97
• D2W = 2.86
• S23W = 2.4
• Y5R = 3.18
• H1S = 3.68
• T18W = 2.12
• P15H = 2.47
• Y5M = 3.11
• Q24A = 2.28
• T22R = 2.48
• Y5H = 2.98
• S23L = 2.39
• T22S = 2.74
• P15D = 3.16
• H1R = 3.09
• G21Y = 1.87
• T22P = 2.59
• T11E = 3.07
• T18C = 2.66
• P15S = 2.48
